SYSTEM NAME: recombinant human H2 histamine receptor (Homo sapiens, UniProt P25021)
Construct: expressed in transfected cells; host or cells: CHO cells (membranes)
Sequence (P25021 whole entry): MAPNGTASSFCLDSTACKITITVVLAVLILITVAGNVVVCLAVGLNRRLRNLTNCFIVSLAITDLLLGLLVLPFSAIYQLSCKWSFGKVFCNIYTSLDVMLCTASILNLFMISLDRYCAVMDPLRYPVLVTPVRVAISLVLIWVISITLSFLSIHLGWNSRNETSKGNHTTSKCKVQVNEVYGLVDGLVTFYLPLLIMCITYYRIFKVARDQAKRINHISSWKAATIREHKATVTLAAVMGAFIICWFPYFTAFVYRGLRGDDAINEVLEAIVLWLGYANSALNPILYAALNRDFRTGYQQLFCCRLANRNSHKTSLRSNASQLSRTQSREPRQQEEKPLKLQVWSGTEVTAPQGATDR
RUN DESCRIPTION: Histamine receptor radioligand binding assay, H2
TEST SETTINGS: [125I]-Aminopotentidine 0.1 nM, CHO membranes
Examples of compounds with documented Ki follow.
Write the answer as a number in µM, unit excluded.

| COMPOUND | Ki [µM] |
| --- | --- |
| COCCOCCOCCOCCOCCN(C)CCC=C1c2ccccc2CCc2ccccc21 [mPEG5-N-Amitriptyline] | 13.1 |

Okay, next one:
Asked: # input compound: COCCOCCOCCN(C)CCC=C1c2ccccc2CCc2ccccc21 [mPEG3-N-Amitriptyline] ; wanted: its Ki
Given back: 3.01

---

SYSTEM NAME: recombinant human M5 muscarinic acetylcholine receptor (Homo sapiens)
Sequence (P08912 whole entry): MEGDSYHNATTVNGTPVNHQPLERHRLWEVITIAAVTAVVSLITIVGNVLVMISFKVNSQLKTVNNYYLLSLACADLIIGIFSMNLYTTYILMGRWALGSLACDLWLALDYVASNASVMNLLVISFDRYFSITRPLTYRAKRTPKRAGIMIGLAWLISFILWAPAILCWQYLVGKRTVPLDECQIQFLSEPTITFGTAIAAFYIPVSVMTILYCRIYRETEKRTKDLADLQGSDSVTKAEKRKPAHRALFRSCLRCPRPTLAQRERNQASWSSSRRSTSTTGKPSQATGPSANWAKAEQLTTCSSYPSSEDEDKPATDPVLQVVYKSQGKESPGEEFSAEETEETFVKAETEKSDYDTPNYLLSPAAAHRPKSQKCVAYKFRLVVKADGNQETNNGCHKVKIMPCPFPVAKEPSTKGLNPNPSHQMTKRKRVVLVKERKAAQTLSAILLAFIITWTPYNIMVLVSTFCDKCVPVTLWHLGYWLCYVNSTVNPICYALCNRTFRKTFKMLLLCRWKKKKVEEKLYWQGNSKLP
RUN DESCRIPTION: Muscarinic receptor binding assay, M5
TEST SETTINGS: 3H-N-Methylscopolamine 0.8 nM, CHO membranes
PARAMETER: pKi
The scale used: pKi is minus the common logarithm of the concentration in molar units.

Asked: # input compound: CN(C)CCC=C1c2ccccc2CCc2ccccc21 ; wanted: its pKi
Given back: 7.77

---

System: sodium channels (neuronal INa) in isolated rat dorsal root ganglion cells
RUN DESCRIPTION: Sodium channel assay, whole-cell patch clamp, neuronal INa
Type: cell-based
TEST SETTINGS: pacing 0.1 Hz; approximate, >50% inhibition not obtained at highest concentration; read-out: Neuronal INa IC50 at 0.1 Hz
PARAMETER: pIC50
The scale used: pIC50 is minus the common logarithm of the concentration in molar units.

| COMPOUND | RECORDED NUMBER |
| --- | --- |
| NC(=O)N1c2ccccc2C=Cc2ccccc21 [Carbamazepine, reference compound] | 3.99 |
| COCCOCCOCCOCCOCCOCCOCCNC(=O)N1c2ccccc2C=Cc2ccccc21 [mPEG7-N-Carbamazepine] | 3.84 |

Asked: What value of pIC50 on sodium channels (neuronal INa) in isolated rat dorsal root ganglion cells does COCCOCCOCCNC(=O)N1c2ccccc2C=Cc2ccccc21 [mPEG3-N-Carbamazepine] have?
Given back: 3.85

---

SYSTEM NAME: recombinant human H1 histamine receptor (Homo sapiens)
Construct: expressed in transfected cells; host or cells: CHO cells (membranes)
Sequence (P35367 whole entry): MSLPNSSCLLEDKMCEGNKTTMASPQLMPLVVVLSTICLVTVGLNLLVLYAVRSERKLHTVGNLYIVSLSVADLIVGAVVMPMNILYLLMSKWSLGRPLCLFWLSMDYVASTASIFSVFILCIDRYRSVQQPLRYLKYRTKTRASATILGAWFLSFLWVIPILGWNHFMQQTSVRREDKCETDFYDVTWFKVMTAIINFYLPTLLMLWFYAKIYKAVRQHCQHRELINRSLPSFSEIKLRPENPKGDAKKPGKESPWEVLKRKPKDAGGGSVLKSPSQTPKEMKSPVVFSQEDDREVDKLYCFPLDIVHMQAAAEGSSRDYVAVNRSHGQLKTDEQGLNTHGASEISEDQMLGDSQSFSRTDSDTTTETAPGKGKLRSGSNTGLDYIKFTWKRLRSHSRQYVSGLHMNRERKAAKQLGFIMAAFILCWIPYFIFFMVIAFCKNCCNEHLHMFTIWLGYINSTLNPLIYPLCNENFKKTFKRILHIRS
RUN DESCRIPTION: Histamine receptor radioligand binding assay, H1
TEST SETTINGS: Ki relative to amitriptyline
PARAMETER: H1 Receptor Fold-change over parent
Give a plain numeric answer without units written out.

Consider the reported H1 Receptor Fold-change over parent for these compounds:
| COMPOUND | PARAMETER | RECORDED NUMBER |
| --- | --- | --- |
| COCCOCCOCCOCCOCCN(C)CCC=C1c2ccccc2CCc2ccccc21 [mPEG5-N-Amitriptyline] | H1 Receptor Fold-change over parent | 11 |
| COCCOCCOCCN(C)CCC=C1c2ccccc2CCc2ccccc21 [mPEG3-N-Amitriptyline] | H1 Receptor Fold-change over parent | 6 |
| COCCOCCOCCOCCOCCOCCOCCN(C)CCC=C1c2ccccc2CCc2ccccc21 [mPEG7-N-Amitriptyline] | H1 Receptor Fold-change over parent | 23 |

Okay, next one:
Asked: # input compound: COCCOCCOCCOCCOCCOCCN(C)CCC=C1c2ccccc2CCc2ccccc21 [mPEG6-N-Amitriptyline] ; wanted: its H1 Receptor Fold-change over parent
Given back: 19
